Entry source: ChEMBL document CHEMBL3608250

- experimentSummary: Half life in Balb/C mouse at 1 mg/kg, iv and 5 mg/kg, po
- Assay type: ADME, organism-based
- particulars: in vivo
observationType: half-life (h)

{"columns": ["smilesInput", "half-life [h]"],
 "data": [
  ["Cc1ccc([C@H](C)NC(=O)c2cccc(C(F)(F)F)c2)cc1NC(=O)c1cnc2ccccn12", 1.4]
]}

P: Cc1ccc(CNC(=O)Nc2cccc(F)c2)cc1NC(=O)c1cnc2ccccn12
Q: Cc1ccc([C@H](C)Nc2nc3cc(F)ccc3o2)cc1NC(=O)c1cnc2ccccn12
So which one has the bigger half-life here, P or Q ? Please respond with the label that marks your chosen entry.
Q
